assay: total protein half-life in vivo (active degradation + dilution); higher = more stable protein
run_conditions: wild type E. coli NCM3722; growth: N-lim chemostat; doubling time 6 h
quantity_measured: total protein half-life in vivo (h)
The figure you give is taken to be in h; do not add the unit.

Given item MSKKIAVLITDEFEDSEFTSPADEFRKAGHEVITIEKQAGKTVKGKKGEASVTIDKSIDEVTPAEFDALLLPGGHSPDYLRGDNRFVTFTRDFVNSGKPVFAICHGPQLLISADVIRGRKLTAVKPIIIDVKNAGAEFYDQEVVVDKDQLVTSRTPDDLPAFNREALRLLGA , the value recorded as its total protein half-life in vivo is 4.72

Given item MVTINNARKILQRVDTLPLYLHAYAFHLNMRLERVLPADLLDIASENNLRGVKIHVLDGERFSLGNMDDKELSAFGDKARRLNLDIHIETSASDKASIDEAVAIALKTGASSVRFYPRYEGNLRDVLSIIANDIAYVRETYQDSGLTFTIEQHEDLKSHELVSLVKESEMESLSLLFDFANMINANEHPIDALKTMAPHITQVHIKDALIVKEPGGLGHKACISGQGDMPFKALLTHLICLGDDEPQVTAYGLEEEVDYYAPAFRFEDEDDNPWIPYRQMSETPLPENHLLDARLRKEKEDAINQINHVRNVLQQIKQEANHLLNH , the value recorded as its total protein half-life in vivo is 2.77

* * *

assay: total protein half-life in vivo (active degradation + dilution); higher = more stable protein
run_conditions: wild type E. coli NCM3722; growth: N-lim chemostat; doubling time 12 h
quantity_measured: total protein half-life in vivo (h)
The figure you give is taken to be in h; do not add the unit.

Given item MWKRLLIVSAVSAAMSSMALAAPLTVGFSQVGSESGWRAAETNVAKSEAEKRGITLKIADGQQKQENQIKAVRSFVAQGVDAIFIAPVVATGWEPVLKEAKDAEIPVFLLDRSIDVKDKSLYMTTVTADNILEGKLIGDWLVKEVNGKPCNVVELQGTVGASVAIDRKKGFAEAIKNAPNIKIIRSQSGDFTRSKGKEVMESFIKAENNGKNICMVYAHNDDMVIGAIQAIKEAGLKPGKDILTGSIDGVPDIYKAMMDGEANASVELTPNMAGPAFDALEKYKKDGTMPEKLTLTKSTLYLPDTAKEELEKKKNMGY , the value recorded as its total protein half-life in vivo is 11.9

* * *

assay: total protein half-life in vivo (active degradation + dilution); higher = more stable protein
run_conditions: wild type E. coli NCM3722; growth: N-lim chemostat; doubling time 12 h
Would you kindly list total protein half-life in vivo for each of these sequences?
In your response, the unit should come after the numeric value.

Given item MNKVAQYYRELVASLSERLRNGERDIDALVEQARERVIKTGELTRTEVDELTRAVRRDLEEFAMSYEESLKEESDSVFMRVIKESLWQELADITDKTQLEWREVFQDLNHHGVYHSGEVVGLGNLVCEKCHFHLPIYTPEVLTLCPKCGHDQFQRRPFEP [P0AAT9] , the value recorded as its total protein half-life in vivo is 10.7 h

Given item MKKIACLSALAAVLAFTAGTSVAATSTVTGGYAQSDAQGQMNKMGGFNLKYRYEEDNSPLGVIGSFTYTEKSRTASSGDYNKNQYYGITAGPAYRINDWASIYGVVGVGYGKFQTTEYPTYKHDTSDYGFSYGAGLQFNPMENVALDFSYEQSRIRSVDVGTWIAGVGYRF [P0A917] , the value recorded as its total protein half-life in vivo is 12.9 h

Given item MENLARFLSTTLKQLRQQRGWSLSRLAEATGVSKAMLGQIERNESSPTVATLWKIATGLNVPFSTFISPPQSATPSVYDPQQQAMVITSLFPYDPQLCFEHFSIQMASGAISESTPHEKGVIEHVVVIDGQLDLCVDGEWQTLNCGEGVRFAADVTHIYRNGGEQTVHFHSLIHYPRS , the value recorded as its total protein half-life in vivo is 7.78 h

Given item MNLSTKQKQHLKGLAHPLKPVVLLGSNGLTEGVLAEIEQALEHHELIKVKIATEDRETKTLIVEAIVRETGACNVQVIGKTLVLYRPTKERKISLPR [P0AGK4] , the value recorded as its total protein half-life in vivo is 10.8 h
